assay overview: Drug uptake in Hartley guinea pig CSF at 60 mg/kg, po measured at 12 hrs
Format: ADME, organism-based, Cavia porcellus, Cerebrospinal fluid
Design: dose 60 mg/kg, route oral
condition set: read-out: Drug uptake
parameter measured: concentration at 12 h (nM)

CN1C(=O)[C@]2(N=C1N)c1cc(-c3cccnc3F)ccc1O[C@H]1CCOC[C@@H]12 | 2.6

---

assay overview: Intrinsic clearance in CD-1 mouse hepatocytes at 2 uM after 60 to 120 mins
Assay type: ADME, cell-based, Hepatocyte
condition set: read-out: CLH
parameter measured: CLint scaled at 2 µM (mL/min/kg)

CN1C(=O)[C@]2(N=C1N)c1cc(-c3cccnc3F)ccc1O[C@H]1CCOC[C@@H]12 | 36

---

assay overview: Ratio of unbound drug level in brain to plasma in CD-1 mouse measured at 1 hr
Format: ADME
condition set: CD-1, mouse, read-out: K(p,uu,brain)
Recorded Kp uu at 1 h, one value per entry.
parameter measured: Kp uu at 1 h

CN1C(=O)[C@]2(N=C1N)c1cc(-c3cncc(Cl)c3)ccc1O[C@H]1CCOC[C@@H]12 (racemic) | 0.038
CN1C(=O)[C@]2(N=C1N)c1cc(-c3cccnc3F)ccc1O[C@H]1CCOC[C@@]12C (racemic) | 0.036
CN1C(=O)[C@]2(N=C1N)c1cc(-c3cncc(F)c3)ccc1O[C@H]1CCOC[C@@H]12 (racemic) | 0.028
C[C@H]1OCC[C@H]2Oc3ccc(-c4cccnc4F)cc3[C@]3(N=C(N)N(C)C3=O)[C@H]12 (racemic) | 0.027
CN1C(=O)[C@]2(N=C1N)c1cc(-c3cc(F)cc(Cl)c3)ccc1O[C@H]1CCOC[C@@H]12 (racemic) | 0.032

---

Recorded CLH, one value per entry.
System: Mus musculus
assay overview: Hepatic clearance in CD-1 mouse at 3 mg/kg, iv
Type: ADME, organism-based, Liver
Set-up: dose 3 mg/kg, route intravenous
condition set: in vivo
parameter measured: CLH (mL/min/kg)

CN1C(=O)[C@]2(N=C1N)c1cc(-c3cccnc3F)ccc1O[C@H]1CCOC[C@@]12C (racemic) | 51
CN1C(=O)[C@]2(N=C1N)c1cc(-c3cncc(F)c3)ccc1O[C@H]1CCOC[C@@H]12 (racemic) | 140
C[C@]12CCOC[C@@H]1[C@]1(COC(N)=N1)c1cc(-c3cncc(Cl)c3)ccc1O2 (racemic) | 34
C[C@H]1OCC[C@H]2Oc3ccc(-c4cccnc4F)cc3[C@]3(N=C(N)N(C)C3=O)[C@H]12 (racemic) | 72
CN1C(=O)[C@]2(N=C1N)c1cc(-c3cccnc3F)ccc1O[C@H]1CCOC[C@@H]12 | 41
CN1C(=O)[C@]2(N=C1N)c1cc(-c3cccc(C#N)c3)ccc1O[C@H]1CCOC[C@@H]12 (racemic) | 35
